Data origin, for the record: ChEMBL document CHEMBL3769343

Form field: Activity (one value per entry).
test system: Influenza A virus (A/WSN/1933(H1N1)); experiment: Binding affinity to Influenza A virus A/WSN/33 (H1N1) HA1 protein assessed as decrease in protein affinity to sialic acid receptor at 0.625 uM by surface plasmon resonance assay
# include the unit after the value

Solved cases (3 shown):
{"molecule.smiles": "CCOC(=O)c1c(CSc2ccccc2)n(C)c2cc(Br)c(O)c(CN(C)C)c12", "system.tested": "Influenza A virus (A/WSN/1933(H1N1))", "Activity": "-1.8 RU"}
{"molecule.smiles": "COc1cc(/C=C/C(=O)CC(=O)/C=C/c2ccc(O)c(OC)c2)ccc1O", "system.tested": "Influenza A virus (A/WSN/1933(H1N1))", "Activity": "0.8 RU"}
{"molecule.smiles": "CCCc1cc(O)cc(OC)c1Oc1c(Cl)c(O)c(Cl)c2c1C(=O)O[C@@H]2CC", "system.tested": "Influenza A virus (A/WSN/1933(H1N1))", "Activity": "3.4 RU"}

The record that follows has no Activity shown yet.
Input line: Let me know recorded Activity for "CCCc1c(Cl)c(O)cc(OC)c1Oc1c(Cl)c(O)c(Cl)c2c1C(=O)O[C@@H]2CC" , thanks.
Output line: 3.3 RU
